All figures here come from PubChem BioAssay (NCI).

# Test system: OVCAR-4 ovarian
# methodSummary: NCI-60 one-dose screen, 48 h (100 = growth as untreated, 0 = no growth, -100 = all killed)
# testContext: 10 µM unless noted
About 83,000 compounds went through this panel and 20% of them were active in at least one assay; those are over-represented in the sample as a whole.

{"molecule": "CCN1C(=S)N(CC)C2Nn3c(s/c(=C4\\C(=O)N(C)c5ccccc54)c3=O)=NC21 (stereo not given)", "growth (%)": 47.5}
{"molecule": "COc1ccc(/C=C/C(=O)c2cc(OC)c(OC)c(OC)c2)cc1OCc1cn(Cc2ccc(F)cc2)nn1", "growth (%)": 43.4}
{"molecule": "COc1cc(NC(=O)c2cc3ccccc3nc2Nc2ccc(F)cc2)cc(OC)c1OC", "growth (%)": 47.7}
{"molecule": "CCOC(=O)c1cc(/C(=N\\O)c2cc(OC)c(OC)c(OC)c2)n2cc(C)cc(C)c12", "growth (%)": 20.7}
{"molecule": "CCN1C(=O)N(CC)C2C1NN=c1s/c(=C\\c3cccc(F)c3)c(=O)n12 (stereo not given)", "growth (%)": 44.1}
{"molecule": "O=S(=O)(NCCCNc1nccc(-c2c(-c3ccc(F)c(O)c3)nc3sccn23)n1)c1ccc(Cl)cc1", "growth (%)": 99.1}
{"molecule": "COc1ccc(C(=O)c2cc(OC)c(OC)c(OC)c2)cc1/C=C/C(=O)c1ccc(O)cc1", "growth (%)": 43.6}
{"molecule": "Cc1cccc2cc(/C=C/C(=O)/C=C/c3ccc(Cl)cc3)c(=O)[nH]c12", "growth (%)": 58}
{"molecule": "CCCC1OC(c2ccc(C(C)C)cc2)OCC1CC (stereo not given)", "growth (%)": 112}
{"molecule": "O=S(=O)(NCCNc1nccc(-c2c(-c3ccccc3)nc3sccn23)n1)c1ccc(O)cc1", "growth (%)": 56.5}
{"molecule": "CCCCCCCCCCn1cc[n+](C)c1", "growth (%)": 22.7}
{"molecule": "CC1=CNNc2c3ncnc-3ncn21", "growth (%)": 111}
{"molecule": "Cc1nc(Nc2cccnc2)sc1C(=O)/C=C/c1ccc(Cl)cc1", "growth (%)": 82.4}
{"molecule": "COc1ccc(S(=O)(=O)NCCNc2nccc(-c3c(-c4ccccc4)nc4sccn34)n2)cc1", "growth (%)": 27.8}
{"molecule": "CC1Cc2c(N(C)C)ncnc2N(C)c2ccc(Cl)cc21 (stereo not given)", "growth (%)": 49.7}
{"molecule": "C=C1C(=O)O[C@H]2[C@H]1CC/C(Cn1cc(-c3ccccc3C(F)(F)F)nn1)=C\\CC[C@@]1(C)O[C@@H]21", "growth (%)": -19}
{"molecule": "COc1ccc(/C=C2\\C(=O)N(C(=O)c3csc(NC(C)=O)n3)N=C2C)cc1", "growth (%)": 109}
{"molecule": "O=[N+]([O-])c1cccc(-c2cc(-c3cc(Br)ccc3O)[nH]n2)c1", "growth (%)": 16.3}
{"molecule": "CCCCNc1nnc(-c2cc(-c3cc4ccccc4o3)nn2-c2ccccc2)o1", "growth (%)": 86.7}
{"molecule": "CC(=O)Nc1ccc(S(=O)(=O)N2C(=O)CCC2C(=O)Nc2ccc(Br)cc2)cc1 (stereo not given)", "growth (%)": 25.5}
